B1: ZNF207 (parent)
chain: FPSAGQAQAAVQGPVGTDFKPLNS

variants of: B1; assay: protein stability index of a GFP-peptide fusion (GPS, HEK-293T) (PSI 1-6); higher = more stable; conditions: c terminus: a fixed tail appended;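 note: lentivirally expressed fusions sorted by FACS into six bins by GFP to DsRed ratio, PSI derived from sequencing read proportions per bin multiplied by bin number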
metric: protein stability index
Give bare numbers.

Provide reported protein stability index for each item, in the same order as listed.
1. K20G
2. T17E

Response line:
1: 3.77; 2: 3.9

Go through the items and report each one's protein stability index.
1. S3P
2. D18A

Response line:
1: 3.63; 2: 3.31

Provide each entry's protein stability index from the list below.
1. L22D
2. P21R
3. A9F
4. G5Y
5. S3H
6. S3M
7. S3F

Response line:
1: 4.46; 2: 3.77; 3: 2.02; 4: 1.82; 5: 3.35; 6: 3.43; 7: 3.03

For every item in the list below, what is its measured protein stability index?
1. G16L
2. G5K
3. Q8Y
4. F19M

Response line:
1: 3.21; 2: 4.23; 3: 1.71; 4: 3.76

For every item below, please supply its protein stability index.
1. P14I
2. S3Y
3. A10S
4. G5E
5. S24M

Response line:
[2.98, 2.34, 3.73, 4.17, 3.08]

Below are 2 variants. Give each one its protein stability index.
1. A4F
2. F19T

Response line:
1: 3.82; 2: 3.55

The values you see were collected from the supplement of paper PMC10567573.
